Hey, just so you know, these numbers are from patent US20110065632A1.

Measured pKi, listed per entry.
experimental-system: hsst5 (Homo sapiens)
Construct: expressed in transfected cells
Sequence (P35346 whole entry): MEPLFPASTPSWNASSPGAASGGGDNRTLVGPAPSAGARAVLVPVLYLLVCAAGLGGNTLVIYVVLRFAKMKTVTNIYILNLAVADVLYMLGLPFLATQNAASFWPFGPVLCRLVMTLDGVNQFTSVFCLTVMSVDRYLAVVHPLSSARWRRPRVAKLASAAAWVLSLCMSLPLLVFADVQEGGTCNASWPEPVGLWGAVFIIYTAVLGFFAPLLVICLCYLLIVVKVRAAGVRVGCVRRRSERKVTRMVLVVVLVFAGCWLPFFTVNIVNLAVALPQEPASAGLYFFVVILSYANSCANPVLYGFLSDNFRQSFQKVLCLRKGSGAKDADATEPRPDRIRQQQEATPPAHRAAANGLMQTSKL
experiment-description: Somatostatin receptor radioligand binding assay, hsst5
assay-context: CHO-K1 membranes, [125I-Tyr11]SS-14; read-out: hsst5 Ki
Numbered stars: 1 amine (or outer) side, 2 acyl side, 3 side chain; on linkers, the order of the positions; unused ones are H or OH. Bridge positions count the residues as written; N and C are the ends. Square brackets hold non-standard residues; d marks the D form. Peptide text beside a SMILES is read from it. * marks the point of attachment. X3 = CCCN1C[C@H](CSCC(=O)Oc2ccc(C[C@H](N[*:1])C(=O)[*:2])cc2I)C[C@@H]2c3cccc4[nH]cc(c34)C[C@H]21; X1 = CCCN1C[C@H](CSCC(=O)*)C[C@@H]2c3cccc4[nH]cc(c34)C[C@H]21; Dopa = N[C@@H](Cc1ccc(O)c(O)c1)C(=O)O; Abu = CC[C@H](N)C(=O)O; AEEA = NCCOCCOCC(=O)O
Note on pKi: it is the negative log10 of concentration, concentration in mol/L.

Answered examples (3):
CCCN1C[C@H](CSCC(=O)N[C@H](Cc2ccccc2)C(=O)NCCOCCOCC(=O)N[C@H](Cc2ccccc2)C(=O)N[C@H]2CSSC[C@@H](C(=O)N[C@H](C(N)=O)[C@@H](C)O)NC(=O)[C@H](C(C)C)NC(=O)[C@H](CCCCN)NC(=O)[C@@H](Cc3c[nH]c4ccccc34)NC(=O)[C@H](Cc3ccc(OC(=O)CSC[C@@H]4C[C@@H]5c6cccc7[nH]cc(c67)C[C@H]5N(CCC)C4)c(I)c3)NC2=O)C[C@@H]2c3cccc4[nH]cc(c34)C[C@H]21 [Example 5] (X1-[dF][AEEA][dF]C[X3][dW]KVCT-NH2; disulfide 4-9)	7.56
CCCN1C[C@H](CSCC(=O)N[C@H](Cc2ccccc2)C(=O)N[C@H]2CSSC[C@@H](C(=O)N[C@H](C(N)=O)[C@@H](C)O)NC(=O)[C@H]([C@@H](C)O)NC(=O)[C@H](CCCCN)NC(=O)[C@@H](Cc3c[nH]c4ccccc34)NC(=O)[C@H](Cc3ccc(O)c(I)c3)NC2=O)C[C@@H]2c3cccc4[nH]cc(c34)C[C@H]21 [Example 12]	8.39
C=CCN1C[C@H](C(=O)N(CCCN(C)CC(=O)N[C@H](Cc2ccccc2)C(=O)N[C@H]2CSSC[C@@H](C(=O)N[C@H](C(N)=O)[C@@H](C)O)NC(=O)[C@H](CC)NC(=O)[C@H](CCCCN)NC(=O)[C@@H](Cc3c[nH]c4ccccc34)NC(=O)[C@H](Cc3ccc(O)cc3)NC2=O)C(=O)NCC)C[C@@H]2c3cccc4[nH]cc(c34)C[C@H]21 [Example 6]	7.25

// query Check the records and state pKi for CC[C@@H]1NC(=O)[C@H](CCCCN)NC(=O)[C@@H](Cc2c[nH]c3ccccc23)NC(=O)[C@H](Cc2ccc(O)cc2)NC(=O)[C@@H](NC(=O)[C@@H](Cc2ccccc2)NC(=O)COCCOCCNC(=O)COCCOCCNC(=O)CSC[C@@H]2C[C@@H]3c4cccc5[nH]cc(c45)C[C@H]3N(C)C2)CSSC[C@@H](C(=O)N[C@H](C(N)=O)[C@@H](C)O)NC1=O [Example 42]
// result 7.69

// query Check the records and state pKi for CC[C@@H]1NC(=O)[C@H](CCCCN)NC(=O)[C@@H](Cc2c[nH]c3ccccc23)NC(=O)[C@H](Cc2ccc(O)cc2)NC(=O)[C@@H](NC(=O)[C@@H](Cc2ccccc2)NC(=O)[C@H](CCCCNC(=O)[C@@H](N)Cc2ccc(O)c(O)c2)NC(=O)[C@@H](N)Cc2ccc(O)c(O)c2)CSSC[C@@H](C(=O)N[C@H](C(N)=O)[C@@H](C)O)NC1=O [Example 18] (H-[Dopa]K(Dopa)[dF]CY[dW]K[Abu]CT-NH2; disulfide 4-9)
// result 7.49

// query Check the records and state pKi for CCCN1C[C@H](CSCC(=O)NCCN2CCN(CC(=O)N[C@H](Cc3ccccc3)C(=O)N[C@H]3CSSC[C@@H](C(=O)N[C@H](C(N)=O)[C@@H](C)O)NC(=O)[C@H](CC)NC(=O)[C@H](CCCCN)NC(=O)[C@@H](Cc4c[nH]c5ccccc45)NC(=O)[C@H](Cc4ccc(O)cc4)NC3=O)CC2)C[C@@H]2c3cccc4[nH]cc(c34)C[C@H]21 [Example 24]
// result 7.62
